Measured IC50 values are reported for all entries that follow.
Target sequence: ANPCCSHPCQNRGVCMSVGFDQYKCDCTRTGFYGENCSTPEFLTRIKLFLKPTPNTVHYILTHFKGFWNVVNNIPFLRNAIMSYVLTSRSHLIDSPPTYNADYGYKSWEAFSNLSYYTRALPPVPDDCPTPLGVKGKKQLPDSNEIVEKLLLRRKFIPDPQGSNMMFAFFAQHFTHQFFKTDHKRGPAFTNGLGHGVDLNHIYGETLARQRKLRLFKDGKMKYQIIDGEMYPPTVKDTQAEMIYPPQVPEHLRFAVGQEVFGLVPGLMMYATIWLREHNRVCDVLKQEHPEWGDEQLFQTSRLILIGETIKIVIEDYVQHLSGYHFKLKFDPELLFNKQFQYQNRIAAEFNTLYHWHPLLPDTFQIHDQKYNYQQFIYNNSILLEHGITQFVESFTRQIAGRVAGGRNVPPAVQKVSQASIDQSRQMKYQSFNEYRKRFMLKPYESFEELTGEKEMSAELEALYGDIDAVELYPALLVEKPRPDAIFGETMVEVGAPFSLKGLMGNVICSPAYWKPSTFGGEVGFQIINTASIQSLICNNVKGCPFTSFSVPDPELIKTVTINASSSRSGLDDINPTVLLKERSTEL

Compound	IC50
CS(=O)(=O)c1ccc(-c2ccccc2-c2ccccc2)cc1	10 to 50 µM

IC50 for "CS(=O)(=O)c1ccc(-c2ccccc2C#Cc2ccccc2)cc1" ?
< 10 µM

Next compound up: "CS(=O)(=O)c1ccc(-c2ccccc2-c2ccc3ccccc3n2)cc1"
50 to 300 µM

What do you have for "CS(=O)(=O)c1ccc(-c2ccccc2OCc2ccccc2)cc1" ?
50 to 300 µM

Same for "CS(=O)(=O)c1ccc(-c2ccccc2-c2ccc3sccc3c2)cc1"
10 to 50 µM

What about this compound? "COc1ccc(-c2ncccc2-c2ccc(S(C)(=O)=O)cc2)cc1"
10 to 50 µM

Quick one: "CS(=O)(=O)c1ccc(-c2ccccc2-c2ccccc2)c(Cl)c1"
50 to 300 µM

Please answer likewise for "CS(=O)(=O)c1ccc(-c2ccccc2-c2ccc(CO)cc2)cc1"
50 to 300 µM

What do you have for "CS(=O)(=O)c1ccc(-c2cccnc2-c2ccc(F)cc2)cc1" ?
10 to 50 µM
